# Organism: Rattus norvegicus
# Procedure text: DrugMatrix - Regimen: Daily Repeat
# Assay type: toxicity, organism-based, Sprague-Dawley
# Set-up: regimen Daily Repeat, gender Male, age 6-8 weeks
# Condition description: in vivo, po, 0 mg/kg, 120 h, tissue Blood, route oral GAVAGE, dose level Control, time 5 day, vehicle .5 % CMC
Entries annotated with measured EOSINOPHIL
All answers are understood in %, so give the number only.

[
  {
    "Compound": "CCCN1C[C@H](CSC)C[C@@H]2c3cccc4[nH]cc(c34)C[C@H]21 [PERGOLIDE]",
    "EOSINOPHIL (%)": 1.33
  },
  {
    "Compound": "N=C(N)NCCN1CCCCCCC1",
    "EOSINOPHIL (%)": 0.17
  },
  {
    "Compound": "CC1CC(OC(=O)C(O)c2ccccc2)CC(C)(C)C1 (stereo not given) [CYCLANDELATE]",
    "EOSINOPHIL (%)": 0.17
  },
  {
    "Compound": "ClC(Cl)Br",
    "EOSINOPHIL (%)": 0.17
  }
]

Turning now to a further compound:
[Q] Consider the compound shown here: Nc1ccn([C@H]2CC[C@@H](CO)O2)c(=O)n1 What is its recorded EOSINOPHIL?
[A] 1

---

# Species on record: Rattus norvegicus
# Procedure text: DrugMatrix - Regimen: Daily Repeat
# Format: toxicity, organism-based, Sprague-Dawley
# Parameters: regimen Daily Repeat, gender Male, age 6-8 weeks
# Condition description: in vivo, po, 0 mg/kg, 72 h, tissue Plasma, route oral GAVAGE, dose level Control, time 3 day, […]
Entries annotated with measured CHOLESTEROL
All answers are understood in mg/dL, so give the number only.

[
  {
    "Compound": "Cc1noc(NS(=O)(=O)c2ccc(N)cc2)c1C [SULFISOXAZOLE]",
    "Experimental endpoint": "CHOLESTEROL",
    "Assay result": 69.17
  },
  {
    "Compound": "OC(Cn1cncn1)(Cn1cncn1)c1ccc(F)cc1F [FLUCONAZOLE]",
    "Experimental endpoint": "CHOLESTEROL",
    "Assay result": 68.67
  }
]

Turning now to a further compound:
[Q] Consider the compound shown here: CCC(C)n1ncn(-c2ccc(N3CCN(c4ccc(OCC5COC(Cn6cncn6)(c6ccc(Cl)cc6Cl)O5)cc4)CC3)cc2)c1=O (stereo not drawn) [ITRACONAZOLE] What is its recorded CHOLESTEROL?
[A] 68.67

---

Entries annotated with measured BLOOD UREA NITROGEN
# Species on record: Rattus norvegicus
# Procedure text: DrugMatrix - Regimen: Daily Repeat
# Assay type: toxicity, organism-based, Sprague-Dawley
# Design: regimen Daily Repeat, gender Male, age 6-8 weeks
# Condition description: in vivo, po, 0 mg/kg, 120 h, tissue Plasma, route oral GAVAGE, dose level Control, time 5 day, vehicle 100 % WATER
All answers are understood in mg/dL, so give the number only.

[
  {
    "Compound": "Cc1onc(-c2ccccc2Cl)c1C(=O)N[C@@H]1C(=O)N2[C@@H]1SC(C)(C)[C@@H]2C(=O)O [CLOXACILLIN]",
    "Unit label": "mg/dL",
    "Assay result": 15.33
  }
]

[Q] Consider the compound shown here: Clc1cccc(Cl)c1N=C1NCCN1 [CLONIDINE] What is its recorded BLOOD UREA NITROGEN?
[A] 15.33

[Q] COc1cc2nc(N3CCN(C(=O)C4COc5ccccc5O4)CC3)nc(N)c2cc1OC (centres undefined) [DOXAZOSIN] , same question.
[A] 16.17

[Q] C[C@H]1c2cccc(O)c2C(=O)C2=C(O)[C@]3(O)C(=O)C(C(N)=O)=C(O)[C@@H](N(C)C)[C@@H]3[C@@H](O)[C@@H]21.O [DOXYCYCLINE] , same question.
[A] 16.17

[Q] C[C@](N)(Cc1ccc(O)c(O)c1)C(=O)O [METHYLDOPA] , same question.
[A] 17
